tested on: Pseudomonas; assay: Antibacterial activity against Pseudomonas phaseolicola GSPB 2828 at 100 ug/ml after 24 hr by agar diffusion method; type: functional; conditions: GSPB 2828, 24 h, read-out: DIZ
Quantity: zone of inhibition at 100 µg/mL

• Cc1cccc2c1oc(=O)c1cc3c(nc12)CCCC3 = 19 mm
• Cc1ccc2oc(=O)c3cc4c(nc3c2c1)-c1ccccc1CC4 = 18 mm
• O=c1oc2ccccc2c2nc3c(cc12)CCCC3 = 20 mm

====

test system: Pseudomonas fluorescens; experiment: Antibacterial activity against Pseudomonas fluorescens S 97 after 24 to 48 hr by two-fold serial dilution method; assay type: functional
Measured MIC accompanies every entry in the list below.
Quantity: MIC (µg/mL)

* O=c1oc2ccc(Cl)cc2c2nc3c(cc12)CCC3 | 12.5
* Cc1cccc2c1oc(=O)c1cc3c(nc12)CCC3 | 50
* Cc1ccc2oc(=O)c3cc4c(nc3c2c1)CCCC4 | 50
* O=c1oc2ccccc2c2nc3c(cc12)CCc1ccccc1-3 | 25
* O=C(N[C@H](CO)[C@H](O)c1ccc([N+](=O)[O-])cc1)C(Cl)Cl | 6.25
* Cc1cccc2c1oc(=O)c1cc3c(nc12)CCCC3 | 25
* Cc1cccc2c1oc(=O)c1cc3c(nc12)-c1ccccc1CC3 | 50
* Cc1ccc2oc(=O)c3cc4c(nc3c2c1)CCC4 | 25
* O=c1oc2ccc(Cl)cc2c2nc3c(cc12)CCc1ccccc1-3 | 50
* O=c1oc2ccccc2c2nc3c(cc12)CCC3 | 50
* Cc1ccc2oc(=O)c3cc4c(nc3c2c1)-c1ccccc1CC4 | 25
* CC(=O)OCC1=C(C(=O)O)N2C(=O)[C@@H](NC(=O)Cc3cccs3)[C@H]2SC1 | 6.25
* O=c1oc2ccccc2c2nc3c(cc12)CCCC3 | 25
